test system: Streptococcus pneumoniae; assay: Antimicrobial activity against quinolone-resistant Streptococcus pneumoniae by agar dilution method; assay type: functional
Property: MIC50; scope: individual compounds
Please respond with the number in µg/mL and leave the unit unwritten.

Which measured MIC50 value corresponds to "C[C@H]1COc2c(N3CCN(C)CC3)c(F)cc3c(=O)c(C(=O)O)cn1c23.C[C@H]1COc2c(N3CCN(C)CC3)c(F)cc3c(=O)c(C(=O)O)cn1c23.O" ? 16

Which measured MIC50 value corresponds to "CO/N=C(\C(=O)N[C@@H]1C(=O)N2C(C(=O)O)=C(COC(N)=O)CS[C@H]12)c1ccco1" ? 2

Which measured MIC50 value corresponds to "CC1(C)S[C@@H]2[C@H](NC(=O)Cc3ccccc3)C(=O)N2[C@H]1C(=O)O" ? 0.5

Which measured MIC50 value corresponds to "COc1cc(Cc2cnc(N)nc2N)c2cc(Cc3c(C(=O)N(C)C)[nH]c4ccc(Cl)cc34)oc2c1OC" ? 0.25

Which measured MIC50 value corresponds to "CC[C@H]1OC(=O)[C@H](C)[C@@H](O[C@H]2C[C@@](C)(OC)[C@@H](O)[C@H](C)O2)[C@H](C)[C@@H](O[C@@H]2O[C@H](C)C[C@H](N(C)C)[C@H]2O)[C@](C)(O)C[C@@H](C)CN(C)[C@H](C)[C@@H](O)[C@]1(C)O" ? 0.12

Which measured MIC50 value corresponds to "O=C(O)c1cn(C2CC2)c2cc(N3CCNCC3)c(F)cc2c1=O" ? 32

Each recorded value in this set is attributed to ChEMBL document CHEMBL1255353.
